Data provenance: ChEMBL document CHEMBL4177755

System: Candida albicans
experimental details: Antifungal activity against Candida albicans SP3902 after 48 hrs by broth microdilution method
Type: functional
measurement setup: SP3902, 48 h
Would you kindly list MIC95 for each of these substances?
Give bare numbers, in µM.

substance	measured attribute	unit string	reported
H-RRLRLLLRLRR-NH2	MIC95	µM	4
H-RLLRRLRRLLR-NH2	MIC95	µM	4
H-RFFRRFRRFFR-NH2	MIC95	µM	8
H-RWWRRWRRWWR-NH2	MIC95	µM	4
H-WWRRWRRWW-NH2	MIC95	µM	8
H-RIIRRIRRIIR-NH2	MIC95	µM	16
H-RRIRIIIRIRR-NH2	MIC95	µM	2
H-RIRIIIRIR-NH2	MIC95	µM	2
H-FFRRFRRFF-NH2	MIC95	µM	32
H-RRWRWWWRWRR-NH2	MIC95	µM	4

Could I get MIC95 for every one of these entries?
1. H-RWRWWWRWR-NH2
2. H-RRFRFFFRFRR-NH2
3. H-RLRLLLRLR-NH2
4. H-RFRFFFRFR-NH2

Output:
8
4
4
4

----------
System: Candida albicans
experimental details: Antifungal activity against Candida albicans cgmcc 2.2086 in presence of KCl by broth dilution method
Format: functional
Would you kindly list MIC for each of these substances?
Give bare numbers, in µM.

substance	reported
H-RFFRRFRRFFR-NH2	16
H-RLLRRLRRLLR-NH2	16
H-WWRRWRRWW-NH2	16
H-RFRFFFRFR-NH2	32
H-RRLRLLLRLRR-NH2	32
H-RIRIIIRIR-NH2	4
H-LLRRLRRLL-NH2	64
H-RRFRFFFRFRR-NH2	16
H-RWWRRWRRWWR-NH2	8
H-RIIRRIRRIIR-NH2	64

Could I get MIC for every one of these entries?
1. H-RLRLLLRLR-NH2
2. H-RWRWWWRWR-NH2
3. H-FFRRFRRFF-NH2
4. H-RRWRWWWRWRR-NH2
5. H-RRIRIIIRIRR-NH2
6. H-IIRRIRRII-NH2

Output:
16
16
16
8
2
64

----------
experimental details: Cytotoxicity against HEK293T cells assessed as cell viability at 2 to 32 uM after 24 hrs by MTT assay relative to control
Format: cell-based, HEK-293T
measurement setup: human, read-out: Activity
measured attribute: viability at 24 h, up to 32 µM

substance	viability at 24 h, up to 32 µM
H-RWWRRWRRWWR-NH2	70 to 80%

Now look at this one.
Input: Provide one value: measured viability at 24 h, up to 32 µM of "H-WWRRWRRWW-NH2"
Output: 70 to 80%

----------
Test system: Candida albicans
experimental details: Antifungal activity against fluconazole-resistant Candida albicans 17546 after 48 hrs by broth microdilution method
Type: functional
measurement setup: Candida albicans, 17546, 48 h
measured attribute: MIC95 (µM)
Answers are plain numbers, in µM.

Before answering, review these 5 worked examples.
substance	MIC95, µM
H-RFRFFFRFR-NH2	4
H-RLRLLLRLR-NH2	16
H-RWRWWWRWR-NH2	1
H-RFFRRFRRFFR-NH2	4
H-FFRRFRRFF-NH2	4

Could I get MIC95 for every one of these entries?
1. H-RIRIIIRIR-NH2
2. H-RIIRRIRRIIR-NH2
3. H-RRWRWWWRWRR-NH2
4. H-WWRRWRRWW-NH2
5. H-RRFRFFFRFRR-NH2

Output:
[2, 16, 4, 2, 2]

Could I get MIC95 for every one of these entries?
1. H-RRIRIIIRIRR-NH2
2. H-RRLRLLLRLRR-NH2
3. H-RLLRRLRRLLR-NH2
4. H-LLRRLRRLL-NH2
5. H-RWWRRWRRWWR-NH2

Output:
[2, 8, 8, 64, 4]

----------
Tested on: Candida albicans
experimental details: Fungicidal activity against fluconazole-resistant Candida albicans 56452 after 96 hrs
Format: functional
measurement setup: Candida albicans, 56452, 96 h; read-out: MFC99.9
measured attribute: log10(MFC) (log10 of the value in µM)
Scale: log10; quantity: MFC; unit before log: µM

substance	log10(MFC)
H-RWRWWWRWR-NH2	0.60
H-RWWRRWRRWWR-NH2	0.90
H-IIRRIRRII-NH2	1.81
H-FFRRFRRFF-NH2	1.20
H-RRWRWWWRWRR-NH2	0.60
H-WWRRWRRWW-NH2	0.90

Could I get log10(MFC) for every one of these entries?
1. H-RRLRLLLRLRR-NH2
2. H-LLRRLRRLL-NH2
3. H-RIIRRIRRIIR-NH2
4. H-RLRLLLRLR-NH2
5. H-RFFRRFRRFFR-NH2
6. H-RRFRFFFRFRR-NH2
7. H-RLLRRLRRLLR-NH2

Output:
1: 0.90; 2: 1.51; 3: 0.90; 4: 0.90; 5: 0.90; 6: 0.60; 7: 0.90

Could I get log10(MFC) for every one of these entries?
1. H-RRIRIIIRIRR-NH2
2. H-RIRIIIRIR-NH2
3. H-RFRFFFRFR-NH2

Output:
1. 0.00
2. 0.60
3. 0.60

----------
Tested on: Candida albicans
experimental details: Fungicidal activity against Candida albicans SP3876 after 96 hrs
Type: functional
measurement setup: SP3876, 96 h, read-out: MFC99.9
Friendly reminder: MFC below 4 µM is condition met, at or above is condition not met.

Some solved cases for reference:
substance	target under test	classification
H-FFRRFRRFF-NH2	Candida albicans	condition not met
H-RWWRRWRRWWR-NH2	Candida albicans	condition met
H-RIIRRIRRIIR-NH2	Candida albicans	condition not met
H-RLLRRLRRLLR-NH2	Candida albicans	condition not met
H-RIRIIIRIR-NH2	Candida albicans	condition met
H-RFRFFFRFR-NH2	Candida albicans	condition not met

Input: Check if MFC falls below 4 µM for "H-RRIRIIIRIRR-NH2" .
Output: condition met

Input: Check if MFC falls below 4 µM for "H-RFFRRFRRFFR-NH2" .
Output: condition not met

Input: Check if MFC falls below 4 µM for "H-IIRRIRRII-NH2" .
Output: condition not met

----------
Tested on: Salmonella typhimurium
experimental details: Bactericidal activity against Salmonella typhimurium ATCC 14028
Assay type: functional, Salmonella enterica subsp. enterica serovar Typhimurium
measurement setup: Salmonella enterica, read-out: MBC99.9
measured attribute: MBC (µM)
One number for each entry, in µM.

Before answering, review these 5 worked examples.
substance	unit string	reported
H-RRWRWWWRWRR-NH2	µM	8
H-RRLRLLLRLRR-NH2	µM	4
H-RLLRRLRRLLR-NH2	µM	16
H-LLRRLRRLL-NH2	µM	32
H-FFRRFRRFF-NH2	µM	8

Could I get MBC for every one of these entries?
1. H-RIRIIIRIR-NH2
2. H-WWRRWRRWW-NH2
3. H-RRIRIIIRIRR-NH2
4. H-RWWRRWRRWWR-NH2

Output:
[8, 16, 4, 32]

----------
Would you kindly list MIC for each of these substances?
Tested on: Escherichia coli
experimental details: Antibacterial activity against Escherichia coli ATCC 25922 after 18 hrs in presence of KCl by broth dilution method
Assay type: functional
measurement setup: ATCC 25922, 18 h
Answers are plain numbers, in µM.

Before answering, review these 6 worked examples.
substance	reported
H-RLRLLLRLR-NH2	4
H-RIIRRIRRIIR-NH2	16
H-RRWRWWWRWRR-NH2	4
H-IIRRIRRII-NH2	32
H-RRIRIIIRIRR-NH2	4
H-RRLRLLLRLRR-NH2	4

Now look at this one.
Input: Provide one value: measured MIC of "H-RFRFFFRFR-NH2"
Output: 4

----------
Test system: Salmonella typhimurium
experimental details: Bactericidal activity against Salmonella typhimurium ATCC 14028
Format: functional, Salmonella enterica subsp. enterica serovar Typhimurium
measurement setup: Salmonella enterica, read-out: MBC99.9
measured attribute: MBC (µM)
One number for each entry, in µM.

substance	MBC / µM
H-RIIRRIRRIIR-NH2	32
H-RLRLLLRLR-NH2	8
H-RRFRFFFRFRR-NH2	8
H-RWRWWWRWR-NH2	4
H-RFFRRFRRFFR-NH2	8

Input: Provide one value: measured MBC of "H-RFRFFFRFR-NH2"
Output: 8

----------
Would you kindly list MIC95 for each of these substances?
System: Candida albicans
experimental details: Antifungal activity against Candida albicans 14936 after 48 hrs by broth microdilution method
Format: functional
measurement setup: Candida albicans, 14936, 48 h
One number for each entry, in µM.

substance	MIC95, µM
H-RFRFFFRFR-NH2	8
H-RIRIIIRIR-NH2	2
H-RWWRRWRRWWR-NH2	4
H-LLRRLRRLL-NH2	32
H-RRLRLLLRLRR-NH2	8

Could I get MIC95 for every one of these entries?
1. H-WWRRWRRWW-NH2
2. H-FFRRFRRFF-NH2
3. H-RLLRRLRRLLR-NH2

Output:
[8, 16, 8]

Could I get MIC95 for every one of these entries?
1. H-RRWRWWWRWRR-NH2
2. H-RRIRIIIRIRR-NH2
3. H-RRFRFFFRFRR-NH2
4. H-RLRLLLRLR-NH2
5. H-RWRWWWRWR-NH2
6. H-RFFRRFRRFFR-NH2

Output:
1. 8
2. 2
3. 4
4. 4
5. 8
6. 8

Input: Provide one value: measured MIC95 of "H-RIIRRIRRIIR-NH2"
Output: 8
